assayed system: KRAS G12D (Homo sapiens, UniProt P01116, G12D)
Construct: aa1-188 KRAS WT, HRAS WT, NRAS WT, or KRAS containing the G12D
Sequence (P01116 1-188 isoform P01116-2 G12D): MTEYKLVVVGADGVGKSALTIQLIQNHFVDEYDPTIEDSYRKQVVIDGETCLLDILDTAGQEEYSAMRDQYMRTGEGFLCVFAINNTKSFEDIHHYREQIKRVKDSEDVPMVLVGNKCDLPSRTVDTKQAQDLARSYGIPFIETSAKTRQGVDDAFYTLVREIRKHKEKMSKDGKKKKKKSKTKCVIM
assay: HTRF nucleotide exchange assay, KRAS G12D
particulars: HTRF nucleotide exchange assay (NEA), class symbols
pIC50: −log10 of the molar value.
Assign pIC50 to each entry below.

Problem: Could you tell me which pIC50 is on file for CCc1c(F)ccc2cc(O)cc(-c3c(C)c4nc(OC[C@@]56CCCN5C[C@H](F)C6)nc(N5CCC[C@@](C)(O)C5)c4c4cn(C)nc34)c12 ?
Solution: ≥ 8.00

Problem: Could you tell me which pIC50 is on file for CCc1c(F)ccc2cc(O)cc(-c3cc4nc(OC[C@@]56CCCN5C[C@H](F)C6)nc(N5CC(C(C)(C)O)C5)c4c4cn(C)nc34)c12 ?
Solution: 5.00 to 7.00

Problem: Could you tell me which pIC50 is on file for CCc1c(F)ccc2cc(O)cc(-c3cc4nc(OC[C@@H]5C[C@@H](OC)CN5)nc(N5CCCn6nc(C(=O)N(C)C)cc6C5)c4c4cn(C)nc34)c12 ?
Solution: ≥ 8.00

Problem: Could you tell me which pIC50 is on file for CCc1c(F)ccc2cc(O)cc(-c3cc4nc(OC[C@@]56CCCN5C[C@H](F)C6)nc(N5CCCCCC5)c4c4cn(C)nc34)c12 ?
Solution: 5.00 to 7.00

Problem: Could you tell me which pIC50 is on file for CCc1c(F)ccc2cc(O)cc(-c3cc4nc(OC[C@@]56CCCN5C[C@H](F)C6)nc(N5CCCC5CO)c4c4cn(C)nc34)c12 (stereo partly drawn) ?
Solution: ≥ 8.00

Problem: Could you tell me which pIC50 is on file for CCc1c(F)ccc2cc(O)cc(-c3cc4nc(OC[C@@]56CCCN5C[C@H](F)C6)nc(N5CCCOCC5)c4c4cn(C)nc34)c12 ?
Solution: ≥ 8.00
